molecular target: FGFR4 (human) (UniProt P22455); assay: radiometric filter-binding kinase assay, Kinase HotSpot; conditions: compound 0.5 µM; ATP 10 µM
Sequence (P22455 whole entry, looked up): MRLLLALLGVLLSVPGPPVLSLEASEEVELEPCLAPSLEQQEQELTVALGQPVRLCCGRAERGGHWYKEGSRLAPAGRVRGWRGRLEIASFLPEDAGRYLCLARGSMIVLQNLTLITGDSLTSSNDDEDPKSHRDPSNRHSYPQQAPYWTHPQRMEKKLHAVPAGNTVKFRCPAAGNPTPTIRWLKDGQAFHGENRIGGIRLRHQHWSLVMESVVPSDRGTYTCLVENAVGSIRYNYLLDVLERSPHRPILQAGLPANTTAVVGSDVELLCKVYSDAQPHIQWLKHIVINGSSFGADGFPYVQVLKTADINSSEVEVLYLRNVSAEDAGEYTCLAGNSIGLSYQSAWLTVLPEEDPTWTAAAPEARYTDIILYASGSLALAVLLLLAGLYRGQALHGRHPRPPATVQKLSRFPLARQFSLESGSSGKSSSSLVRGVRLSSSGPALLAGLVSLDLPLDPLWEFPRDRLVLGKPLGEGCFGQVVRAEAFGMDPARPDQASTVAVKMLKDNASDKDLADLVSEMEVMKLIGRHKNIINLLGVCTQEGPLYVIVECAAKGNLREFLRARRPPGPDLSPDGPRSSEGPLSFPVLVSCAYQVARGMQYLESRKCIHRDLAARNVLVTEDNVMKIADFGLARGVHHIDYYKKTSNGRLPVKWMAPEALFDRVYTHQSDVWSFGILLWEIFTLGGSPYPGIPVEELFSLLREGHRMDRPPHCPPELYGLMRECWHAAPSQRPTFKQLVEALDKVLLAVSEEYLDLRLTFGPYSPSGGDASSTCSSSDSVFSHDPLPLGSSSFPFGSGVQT
Lab note: compare residual activity against 90%. Equal or greater, write true. Smaller, write false.

# compound, assigned-class
records = [
    ("O=C1Nc2cc(Br)ccc2/C1=C1/Nc2ccccc2/C1=N\\O", "false"),
    ("O=C(Nc1ccc(Cl)cc1)c1ccccc1NCc1ccncc1", "false"),
    ("NC(=O)c1ccc(N(C(N)=O)c2c(F)cccc2F)nc1-c1ccc(F)cc1F", "true"),
    ("Cc1cc2ncc(-c3ccccc3)nc2cc1C", "false"),
    ("O=c1cc(-c2cccc3c2Sc2ccccc2S3)oc(N2CCOCC2)c1", "true"),
    ("Clc1ccc(Nc2nnc(Cc3ccncc3)c3ccccc23)cc1", "true"),
    ("O=c1cc(N2CCNCC2)oc2c(-c3ccccc3)cccc12", "true"),
    ("C#Cc1cccc(Nc2ncnc3cc(OCCOC)c(OCCOC)cc23)c1", "true"),
    ("Nc1nc(Nc2ccc(S(N)(=O)=O)cc2)nn1C(=S)Nc1c(F)cccc1F", "false"),
    ("CSc1nc(-c2ccc(F)cc2)c(-c2ccnc(NC(C)c3ccccc3)c2)[nH]1 (configuration not stated)", "true"),
    ("Oc1ccc(-c2nc(-c3ccc(F)cc3)c(-c3ccncc3)[nH]2)cc1", "true"),
    ("Nc1n[nH]c2nnc(-c3c(-c4ccccc4)nn4ccccc34)cc12", "true"),
    ("CCCNC(=O)Nc1ccc(Oc2ncnc3cc(OC)c(OC)cc23)cc1Cl", "false"),
    ("CC(C)(C)c1nc2c3ccc(F)cc3c3c(=O)[nH]ccc3c2[nH]1", "true"),
    ("CS(=O)c1ccc(-c2nc(-c3ccc(F)cc3)c(-c3ccncc3)[nH]2)cc1 (configuration not stated)", "false"),
    ("CC(C)[C@H](CO)Nc1nc(Nc2cccc(Cl)c2)c2ncn(C(C)C)c2n1", "false"),
    ("COc1cc2nccc(Oc3ccc(NC(=S)NC(=O)c4ccccc4C)cc3)c2cc1OC", "true"),
    ("CC(C)n1cnc2c(Nc3cccc(Cl)c3)nc(NCCO)nc21", "false"),
]

Entry source: the kinase profiling compilation of Christmann-Franck et al. (2016)
